Measured values drawn from paper PMC4601051 for this set.

Assay: in vitro
Conditions: human
measured metric: EC50 at 69 h

Can you look up the measured EC50 at 69 h of CNC(=O)C1Cc2ccccc2N1C(=O)Cc1cccc2ccccc12 (stereo not shown) [Compound 39] for me?
> 50 µM

---

Assay: Microsomal intrinsic clearance (Clint), rat
Assay type: in vitro ADME
Conditions: rat liver microsomes, 0.5 μM compound
Method: Each test compound (0.5 μM) was incubated with pooled female CDI mouse liver microsomes, pooled male Sprague–Dawley rat microsomes, or pooled mixed gender human liver microsomes (Tebu-Bio, UK; 0.5 mg/mL 50 mM potassium phosphate buffer, pH 7.4) and the reaction started with addition of excess NADPH (8 mg/mL, 50 mM potassium phosphate buffer, pH 7.4). […]
measured metric: microsomal intrinsic clearance, rat

Can you look up the measured microsomal intrinsic clearance, rat of CNC(=O)[C@H]1Cc2ccccc2N1C(=O)COc1ccc(F)cc1 for me?
4.9 mL min^–1 g^–1

Same thing, different molecule: CNC(=O)C1Cc2c(cc(F)c(F)c2F)N1C(=O)COc1ccc(Cl)cc1 (stereo not drawn)
6.7 mL min^–1 g^–1

Same thing, different molecule: CNC(=O)C1Cc2cc(-c3ccccc3)ccc2N1C(=O)COc1ccc(F)cc1 (stereo not drawn)
25 mL min^–1 g^–1

Respectfully, I request microsomal intrinsic clearance, rat for each entry included below.
1. CNC(=O)C1Cc2ccccc2N1C(=O)COc1ccc(C)cc1 (stereo not drawn)
2. CNC(=O)C1Cc2ccccc2N1C(=O)COc1ccc(Cl)c(F)c1 (stereo not drawn)
3. CNC(=O)C1Cc2cc(F)c(F)cc2N1C(=O)COc1ccc(F)cc1 (stereo not drawn)

1: 47 mL min^–1 g^–1; 2: 13.5 mL min^–1 g^–1; 3: 2.8 mL min^–1 g^–1

Respectfully, I request microsomal intrinsic clearance, rat for each entry included below.
1. CNC(=O)C1Cc2ccccc2N1C(=O)COc1ccccc1 (stereo not drawn)
2. CNC(=O)C1Cc2cc(F)ccc2N1C(=O)COc1ccc(Cl)cc1 (stereo not drawn)
3. CNC(=O)C1Cc2cc(F)ccc2N1C(=O)COc1ccc(F)cc1 (stereo not drawn)

9.0 mL min^–1 g^–1
5.3 mL min^–1 g^–1
2.1 mL min^–1 g^–1

---

Tested on: bloodstream form T. brucei brucei
Experiment: T. b. brucei whole cell parasite (trypanosome growth) assay
Format: cell-based, Trypanosoma brucei brucei
Conditions: Trypanosoma brucei, mean of two or more determinations; 69 h + 4 h resazurin; read-out: T. b. brucei EC50
Procedure: This was conducted as previously described.[27] Cell culture plates were stamped with 1 μL of an appropriate stock concentration of test compound, followed by addition of 200 μL of trypanosome culture (HMI9-T, 10% FCS) to each well at a density of 2000 cells per well (except column 12 receiving media only). […] Potency was carried out using 10-point dose–response curves.
measured metric: pEC50
One number for each entry, as −log10 of the molar value.

Respectfully, I request pEC50 for each entry included below.
1. Cc1cccc(OCC(=O)N2c3ccccc3CC2C(N)=O)c1 (stereo not shown) [Compound 24]
2. CNC(=O)C1Cc2ccccc2N1C(=O)COCc1ccccc1 (stereo not shown) [Compound 28]
3. CNC(=O)C1Cc2cc(F)cc(F)c2N1C(=O)COc1ccc(F)cc1 (stereo not shown) [Compound 58]

1: 4.89; 2: 5.72; 3: 7.10

---

Assay: In vivo mouse pharmacokinetics
Conditions: female, mouse, in vivo; PO, 10 mg/kg, NMRI mice; read-out: AUC0–8 (converted)
measured metric: AUC(0-t) (ng·h/mL)
Give bare numbers, in ng·h/mL.

Can you look up the measured AUC(0-t) of CNC(=O)C1Cc2ccccc2N1C(=O)COc1ccc(F)cc1 (stereo not drawn) [Compound 35] for me?
250

Same thing, different compound: CNC(=O)C1Cc2cc(F)ccc2N1C(=O)COc1ccc(F)cc1 (stereo not drawn) [Compound 55]
3500

---
Can you look up the measured AUC(0-t) of CNC(=O)[C@H]1Cc2ccccc2N1C(=O)Cc1ccc(F)cc1 [Compound 47] for me?
1020
